- RUN DESCRIPTION: Assay for plasma protein binding rate (equilibrium dialysis), mouse plasma
- Assay type: in vitro ADME
- TEST CONTEXT: dialysis 6 h at 37 °C, read-out: Mouse (Fu%)
Below, each entry is listed with its recorded fraction unbound at 6 h, 1 µM.
Please respond with just the number, no unit label.

Take a look at these entries with their results.
COc1cc2c(cc1S(=O)(=O)Nc1noc3cc(Cn4cccn4)nc(OC)c13)CCCO2 [Example 76] :: 0.0072
COc1cc2ccoc2cc1S(=O)(=O)Nc1noc2cc(Cn3cccn3)nc(OC)c12 [Example 44] :: 0.048
COc1cc2c(cc1S(=O)(=O)Nc1noc3cc(Cn4cccn4)nc(OC)c13)OCO2 [Example 57] :: 0.0565

Then this compound:
COc1cc2cccnc2cc1S(=O)(=O)Nc1noc2cc(Cn3cccn3)nc(OC)c12 [Example 75] has a reported fraction unbound at 6 h, 1 µM of 0.0163
